// data source = patent US5292733A

Test system: Pseudomonas aeruginosa ATCC 25619
Assay: Antibacterial activity MIC, two-fold agar dilution
Assay type: cell-based
Settings: ATCC25619; Pseudomonas aeruginosa ATCC 25619; Muller-Hinton agar, 37° C., 20 hours; read-out: Antibacterial Activity MIC
Overview of recorded MIC for various compounds
Form entry: value (µg/mL) — number only.

Some solved cases for reference:
Consider the compound C[n+]1c(N)cc(SCC2=C(C(=O)[O-])N3C(=O)[C@@H](NC(=O)/C(=N\OCC(=O)O)c4csc(N)n4)[C@H]3SC2)nc1N and give its recorded MIC.
1

Consider the compound C[n+]1c(N)nc(N)nc1SCC1=C(C(=O)[O-])N2C(=O)C(NC(=O)/C(=N\OC(C)(C)C(=O)O)c3csc(N)n3)[C@H]2SC1 (stereo partly drawn) and give its recorded MIC.
1

Consider the compound CC(O/N=C(\C(=O)N[C@@H]1C(=O)N2C(C(=O)[O-])=C(CSc3cc(N)[n+](C)c(N)n3)CS[C@H]12)c1csc(N)n1)C(=O)O (stereo partly drawn) and give its recorded MIC.
1

Consider the compound C[n+]1c(SCC2=C(C(=O)[O-])N3C(=O)[C@@H](NC(=O)/C(=N\OC(C)(C)C(=O)O)c4csc(N)n4)[C@H]3SC2)cc(N)nc1N and give its recorded MIC.
1

Consider the compound CC[n+]1c(SCC2=C(C(=O)[O-])N3C(=O)[C@@H](NC(=O)/C(=N\OC)c4csc(N)n4)[C@H]3SC2)cc(N)nc1N and give its recorded MIC.
2

More entries:
Consider the compound CC[n+]1c(N)cc(SCC2=C(C(=O)[O-])N3C(=O)[C@@H](NC(=O)/C(=N\OC)c4csc(N)n4)[C@H]3SC2)nc1N and give its recorded MIC.
1

Consider the compound CCO/N=C(\C(=O)N[C@@H]1C(=O)N2C(C(=O)[O-])=C(CSc3cc(N)nc(N)[n+]3C)CS[C@H]12)c1nsc(N)n1 and give its recorded MIC.
2

Consider the compound CO/N=C(\C(=O)N[C@@H]1C(=O)N2C(C(=O)O)=C(COC(C)=O)CS[C@H]12)c1csc(N)n1 [Cefotaxime, reference compound] and give its recorded MIC.
1

Consider the compound CCO/N=C(\C(=O)N[C@@H]1C(=O)N2C(C(=O)[O-])=C(CSc3cc(N)nc(N)[n+]3CC)CS[C@H]12)c1nsc(N)n1 and give its recorded MIC.
2
